Assay Summary: Concentration of ibuprofen in blood after subcutaneous implantation of disc and alternating ultrasound irradiation
Format: in vivo
Condition Notes: blood, sc, after 30 minutes irradiation (0.7 W, 1 MHz, duty cycle 70%), p(BMA-MMA) disc, ibuprofen 3% (m/m), Lewis rat, read-out: concentration of ibuprofen in the blood stream
Measurement Type: concentration at 30 min
Number first, unit second.

Q) Name the recorded concentration at 30 min of the molecule listed here: CC(C)Cc1ccc(C(C)C(=O)O)cc1 (stereo not shown) [ibuprofen]
A) 900 ng/mL
